Source listed as patent EP0737691A1.

Molecular target: GRP receptor (Rattus norvegicus, UniProt P52500)
Construct: endogenous in cells; host or cells: Rat AR42J pancreatic acinar cells (membranes)
Sequence (P52500 whole entry): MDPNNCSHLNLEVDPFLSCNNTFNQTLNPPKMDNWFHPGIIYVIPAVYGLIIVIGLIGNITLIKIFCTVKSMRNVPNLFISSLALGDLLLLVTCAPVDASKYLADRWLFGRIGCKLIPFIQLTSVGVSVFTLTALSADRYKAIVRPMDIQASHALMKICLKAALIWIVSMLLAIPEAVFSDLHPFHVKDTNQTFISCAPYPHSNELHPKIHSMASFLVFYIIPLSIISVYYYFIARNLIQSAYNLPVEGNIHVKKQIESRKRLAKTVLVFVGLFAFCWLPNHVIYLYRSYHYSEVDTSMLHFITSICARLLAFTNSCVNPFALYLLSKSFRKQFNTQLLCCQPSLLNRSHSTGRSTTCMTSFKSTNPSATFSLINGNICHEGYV
Assay: GRP Receptor Binding Assay ([125I-Tyr4] bombesin displacement, AR42J cell membranes)
Settings: affinity for the GRP receptor; [125I-Tyr4] bombesin, rat AR42J pancreatic acinar cell membranes, 30 min, 4°C; read-out: IC50
Experimental: Rat AR42J pancreatic acinar cells were cultured in Dulbecco's modified Eagle's medium without antibiotics and supplemented with 10% (vol/vol) fetal calf serum. The incubation atmosphere consisted of 10% CO2-90% humidified air at 37°C. […]
Square brackets hold non-standard residues; d marks the D form. Peptide text beside a SMILES is read from it. Nle = CCCC[C@H](N)C(=O)O; βAla = NCCC(=O)O
metricName: IC50
Quick note: number first, unit second.

CCCC[C@H](NC(=O)[C@H](Cc1ccccc1)NC(=O)[C@H](Cc1c[nH]cn1)NC(=O)CCNC(=O)[C@@H](NC(=O)[C@H](C)NC(=O)[C@H](Cc1c[nH]c2ccccc12)NC(=O)[C@H](CCC(N)=O)NC(=O)[C@H](N)Cc1ccccc1)C(C)C)C(N)=O [Analog #1] (H-[dF]QWAV[βAla]HF[Nle]-NH2)	0.2 nM
CCCC[C@H](NC(=O)[C@H](Cc1ccccc1)NC(=O)[C@H](Cc1c[nH]cn1)NC(=O)CCNC(=O)[C@@H](NC(=O)[C@H](C)NC(=O)[C@H](Cc1c[nH]c2ccccc12)NC(=O)[C@H](CCC(N)=O)NC(=O)[C@H](N)Cc1c[nH]c2ccccc12)C(C)C)C(N)=O [Analog #4] (H-[dW]QWAV[βAla]HF[Nle]-NH2)	0.1 nM
CC(C)C[C@H](NC(=O)[C@H](CC(C)C)NC(=O)[C@H](Cc1c[nH]cn1)NC(=O)CCNC(=O)[C@@H](NC(=O)[C@H](C)NC(=O)[C@H](Cc1c[nH]c2ccccc12)NC(=O)[C@H](CCC(N)=O)NC(=O)[C@H](N)Cc1ccccc1)C(C)C)C(N)=O [Analog #2] (H-[dF]QWAV[βAla]HLL-NH2)	1 nM

Moving on to the next compound.
QUERY: Read the entry CCCC[C@H](NC(=O)[C@H](CC(C)C)NC(=O)[C@H](Cc1c[nH]cn1)NC(=O)CCNC(=O)[C@@H](NC(=O)[C@H](C)NC(=O)[C@H](Cc1c[nH]c2ccccc12)NC(=O)[C@H](CCC(N)=O)NC(=O)[C@H](N)Cc1ccccc1)C(C)C)C(N)=O [Analog #5] (H-[dF]QWAV[βAla]HL[Nle]-NH2) and write its reported IC50.
RESULT: 2.1 nM

====

Target: rat NMB receptor (Rattus norvegicus, UniProt P24053)
Sequence (P24053 whole entry): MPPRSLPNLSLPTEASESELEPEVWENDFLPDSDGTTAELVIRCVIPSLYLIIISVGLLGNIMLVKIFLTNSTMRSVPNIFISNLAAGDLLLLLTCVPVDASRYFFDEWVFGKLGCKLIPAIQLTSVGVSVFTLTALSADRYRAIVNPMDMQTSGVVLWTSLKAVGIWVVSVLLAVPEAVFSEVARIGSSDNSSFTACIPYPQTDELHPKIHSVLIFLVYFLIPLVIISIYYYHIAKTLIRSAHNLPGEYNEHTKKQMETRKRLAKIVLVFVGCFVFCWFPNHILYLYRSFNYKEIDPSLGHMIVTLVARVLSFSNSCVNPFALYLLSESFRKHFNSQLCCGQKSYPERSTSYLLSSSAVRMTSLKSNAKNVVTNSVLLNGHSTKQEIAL
Square brackets hold non-standard residues; d marks the D form. Peptide text beside a SMILES is read from it. Nle = CCCC[C@H](N)C(=O)O; βAla = NCCC(=O)O
metricName: IC50 (µM)
Give just the numeric value; µM need not be written.

CCCC[C@H](NC(=O)[C@H](Cc1ccccc1)NC(=O)[C@H](Cc1c[nH]cn1)NC(=O)CCNC(=O)[C@@H](NC(=O)[C@H](C)NC(=O)[C@H](Cc1c[nH]c2ccccc12)NC(=O)[C@H](CCC(N)=O)NC(=O)[C@H](N)Cc1ccccc1)C(C)C)C(N)=O [Analog #1] (H-[dF]QWAV[βAla]HF[Nle]-NH2)	0.001

Could you now consider this next compound?
QUERY: Using known records, supply IC50 for CC(C)C[C@H](NC(=O)[C@H](CC(C)C)NC(=O)[C@H](Cc1c[nH]cn1)NC(=O)CCNC(=O)[C@@H](NC(=O)[C@H](C)NC(=O)[C@H](Cc1c[nH]c2ccccc12)NC(=O)[C@H](CCC(N)=O)NC(=O)[C@H](N)Cc1ccccc1)C(C)C)C(N)=O [Analog #2] (H-[dF]QWAV[βAla]HLL-NH2)
RESULT: 0.041
